# Assayed Target: AviTag-238D2 (biotinylated, c-myc-tagged 238D2)
# Sequence (VHH, as listed by the source): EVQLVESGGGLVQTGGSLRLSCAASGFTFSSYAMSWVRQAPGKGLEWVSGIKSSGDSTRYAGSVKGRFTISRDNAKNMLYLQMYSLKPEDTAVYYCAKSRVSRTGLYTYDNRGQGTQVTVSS
# Measurement Description: BLI
Metric: Kd (nM)
Numbers only, in nM.

Lookup: Recorded Kd for Influenza A H1N1 (A/SOLOMON ISLANDS/3/2006): hemagglutinin H1 as a fusion protein with the neuraminidase N1 , please?
Found: 119

----------
# Assayed Target: AviTag-3SM5 (biotinylated, c-myc-tagged 3SM5 VH)
# Sequence (VH, as listed by the source): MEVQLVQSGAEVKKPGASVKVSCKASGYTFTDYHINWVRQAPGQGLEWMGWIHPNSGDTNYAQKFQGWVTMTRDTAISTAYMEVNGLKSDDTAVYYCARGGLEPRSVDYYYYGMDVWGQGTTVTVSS
# Measurement Description: BLI
Metric: Kd (nM)
Give bare numbers, in nM.

Lookup: Recorded Kd for Influenza A H1N1 (A/SOLOMON ISLANDS/3/2006): hemagglutinin H1 as a fusion protein with the neuraminidase N1 , please?
Found: 236
